Target: T1, natriuretic peptide receptor-B (human)
T1 chain: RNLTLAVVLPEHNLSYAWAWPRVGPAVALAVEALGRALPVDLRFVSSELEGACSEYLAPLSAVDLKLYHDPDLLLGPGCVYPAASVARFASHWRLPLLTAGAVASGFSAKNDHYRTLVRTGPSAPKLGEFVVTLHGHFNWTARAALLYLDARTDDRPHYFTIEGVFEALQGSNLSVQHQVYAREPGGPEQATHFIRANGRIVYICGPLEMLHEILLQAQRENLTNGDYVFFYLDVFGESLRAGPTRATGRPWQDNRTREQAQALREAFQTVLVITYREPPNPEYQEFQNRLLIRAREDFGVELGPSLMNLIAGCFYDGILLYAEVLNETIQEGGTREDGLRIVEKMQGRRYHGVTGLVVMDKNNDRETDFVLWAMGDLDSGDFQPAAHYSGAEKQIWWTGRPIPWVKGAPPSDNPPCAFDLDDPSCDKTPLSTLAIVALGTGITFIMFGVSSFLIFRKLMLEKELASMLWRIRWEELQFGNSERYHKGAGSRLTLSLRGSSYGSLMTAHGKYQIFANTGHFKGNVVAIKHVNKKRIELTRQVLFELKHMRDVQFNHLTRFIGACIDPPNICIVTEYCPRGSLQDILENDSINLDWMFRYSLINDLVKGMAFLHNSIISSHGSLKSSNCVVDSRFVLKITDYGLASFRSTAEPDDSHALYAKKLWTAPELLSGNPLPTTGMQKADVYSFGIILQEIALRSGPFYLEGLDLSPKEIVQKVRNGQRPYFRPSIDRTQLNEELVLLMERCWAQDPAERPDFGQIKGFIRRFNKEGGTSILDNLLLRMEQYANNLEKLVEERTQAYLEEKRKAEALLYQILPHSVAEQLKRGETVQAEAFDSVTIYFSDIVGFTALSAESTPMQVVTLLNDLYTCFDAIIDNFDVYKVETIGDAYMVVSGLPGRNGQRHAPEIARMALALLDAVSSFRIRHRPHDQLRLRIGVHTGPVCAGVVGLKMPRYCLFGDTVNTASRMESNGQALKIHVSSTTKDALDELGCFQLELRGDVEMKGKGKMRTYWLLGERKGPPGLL
Assay: cell-based or functional assay
Numbered stars: 1 amine (or outer) side, 2 acyl side, 3 side chain; on linkers, the order of the positions; unused ones are H or OH. Square brackets hold non-standard residues; d marks the D form. Ends that are not written are not given here. * marks the point of attachment. Pro(trans-4-NH2) = O=C([C@@H]1C[C@@H](N[*:3])CN1[*:1])[*:2]; Sni = (S)-nipecotic acid, O=C([C@H]1CCCN([*:1])C1)[*:2]; Hyp = O=C(O)[C@@H]1C[C@@H](O)CN1; dAgp = N=C(N)NC[C@@H](N)C(=O)O; NMeL = CN[C@@H](CC(C)C)C(=O)O; dNle = CCCC[C@@H](N)C(=O)O; Nle = CCCC[C@H](N)C(=O)O; Octanoyl = CCCCCCCC(=O)*; Che = not defined here; FrL = not defined here; Oct = not defined here; leu = not defined here; Occ = octanoic acid
Each entry below carries its reported EC50 group, cGMP in GTM-3 cells.

# binder, recordedMeasurement
records = [
    ("[Occ][Sni]FLL[Pro(trans-4-NH2)][NMeL]DR[Che] (not fully specified (residue 4); printed as Occ-Sni-Phe-leu-Leu-Tap-Nml-Asp-Arg-Che; reading uncertain) [JAL-1682]", "≤ 1 µM"),
    ("XGXFLLXXDRI (HELM PEPTIDE1{[O=C(CCc1ccccc1)[*:2]].G.[O=C([C@H]1CCCN([*:1])C1)[*:2]].F.[dL].L.[Hyp].[meL].D.R.I.[am]}$$$$V2.0; SMILES CC[C@H](C)[C@H](NC(=O)[C@H](CCCNC(=N)N)NC(=O)[C@H](CC(=O)O)NC(=O)[C@H](CC(C)C)N(C)C(=O)[C@@H]1C[C@@H](O)CN1C(=O)[C@H](CC(C)C)NC(=O)[C@@H](CC(C)C)NC(=O)[C@H](Cc1ccccc1)NC(=O)[C@H]1CCCN(C(=O)CNC(=O)CCc2ccccc2)C1)C(N)=O) [JAL-1668]", "≤ 15 µM"),
    ("[Occ][Sni]F[leu][Nle][Hyp][NMeL]DP[Che] (reading uncertain; also: printed as Occ-Sni-Phe-leu-Nle-Hyp-Nml-Asp-Pro-Che) [JAL-1657]", "≤ 1 µM"),
]

Give me measured EC50 group, cGMP in GTM-3 cells, please, for this binder: [Oct][Sni][FrL][Hyp]LDRI-NH2 (reading uncertain; also: printed as Oct-Sni-FrL-Hyp-Leu-Asp-Arg-Ile-NH2) [JAL-1248]
≤ 5 µM

Give me measured EC50 group, cGMP in GTM-3 cells, please, for this binder: Octanoyl-[Sni]F[dNle]L[Pro(trans-4-NH2)][NMeL]DRI-NH2 [JAL-1319]
≤ 5 µM

Give me measured EC50 group, cGMP in GTM-3 cells, please, for this binder: Octanoyl-[dA]F[dAgp]LPLDRI-NH2 [JAL-1122]
≤ 5 µM
